target desc: F protein of human metapneumovirus strain JPS03-180 (type A1), on infectious virus (human metapneumovirus, strain JPS03-180 …)
assay protocol: cell-based or functional assay
assay endpoint: IC90, neutralizing activity (hMPV infection of LLC-MK2 cells; GraphPad Prism 6) (µg/mL)
# number only, unit µg/mL dropped from output

Exercise: Can you share its IC90, neutralizing activity (hMPV infection of LLC-MK2 cells; GraphPad Prism 6)? I mean this binder: EV046136 (antibody, human IgG1, kappa, V domains shown) VH: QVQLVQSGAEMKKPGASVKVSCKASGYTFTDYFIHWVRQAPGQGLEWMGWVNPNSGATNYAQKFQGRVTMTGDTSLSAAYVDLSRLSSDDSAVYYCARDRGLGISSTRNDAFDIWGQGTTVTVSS VL: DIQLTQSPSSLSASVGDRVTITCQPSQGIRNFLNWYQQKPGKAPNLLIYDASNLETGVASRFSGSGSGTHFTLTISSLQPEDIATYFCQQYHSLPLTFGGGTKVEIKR
Key: 0.605
